system: rodent lifetime carcinogenesis bioassay, tumor incidence TD50; test: carcinogenic potency in animals, long-term in vivo studies, CPDB compilation (AID 1745844); conditions: rat; strain Fischer 344; females; in drinking water; site: liver; lesion: neoplastic nodule; dosed 45 weeks; study length 126 weeks
Observable: TD50

# input Quick one: TD50 for O=NN1CCOCC1 ?
# output 1.28 mg/kg/day

====

system: rodent lifetime carcinogenesis bioassay, tumor incidence TD50; assay: carcinogenic potency in animals, long-term in vivo studies, CPDB compilation (AID 1745844); details: mouse; strain B6C3F1; males; in feed; site: liver; lesion: hepatocellular adenoma + hepatocellular carcinoma; dosed 103 weeks; study length 111 weeks
Observable: TD50

# input Quick one: TD50 for Nc1cc(Cl)c(N)c(Cl)c1 ?
# output 737 mg/kg/day
